# pre-steady-state target cleavage rate per record follows
- Test system: MIWI (PIWIL1) piRISC loaded with piRNA #2 (30 nt);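 also: 1 nM active piRISC with 0.1 nM target library at 33 °C single turnover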
- assay remarks: pre-steady-state target cleavage rate (min^-1); MIWI and MILI are mouse PIWI proteins and EfPiwi is from a freshwater sponge; tags in brackets are library labels; higher = faster piRNA-guided slicing of the target;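 also: 1 nM active piRISC with 0.1 nM target library at 33 °C single turnover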
- condition parameters: guide: piRNA #2 5'p-UUAGGUAACCCAGUAGAUCCAGAGGAAUUC; auxiliary factor: 500 nM mouse GTSF1
The full ranking holds about 5,500 sequences; the median of “pre-steady-state target cleavage rate” is about 0.1, and the highest 2% start at about 0.64. What follows is part of a selection rich in the highest values, with near analogues and random picks from the rest.
Answer field: number only, no words.

biopolymer sequence: CUAUUCCACUGGAUCUACUGGGUUAGCUAA
parameter: pre-steady-state target cleavage rate
value: 0.16

May I ask what pre-steady-state target cleavage rate has been recorded for `CAAUUCCUCUGGAUCUACUGGGUUACCUGAA` ?
0.438

May I ask what pre-steady-state target cleavage rate has been recorded for `GAAUUCCUCUGGAUUUACUGGGUUACCUAA` ?
0.425

May I ask what pre-steady-state target cleavage rate has been recorded for `CAAUUCCUCUGGAUUACUGGGUUACCUAA` ?
0.692

May I ask what pre-steady-state target cleavage rate has been recorded for `GAAUUCCUCUGGAUUACUGGGUUACCUAA` ?
0.413

May I ask what pre-steady-state target cleavage rate has been recorded for `GAAUUCCUCUGGCUCUACUGGGUUACCUAA` ?
0.586

May I ask what pre-steady-state target cleavage rate has been recorded for `CUUAAGGAGUGGAUCUACUGGGUUGCCUAA` ?
0.0417
